The reported measurements were obtained from a melting point compilation (Tetko et al.; mined from patent text by program, amines drawn as free bases though some values may be those of a salt).

This section presents compounds with their documented melting point values.

Please fill in: melting point reported for COc1ccc(C2=NN(C3CCN(C(=O)CCCOc4ccc5[nH]c(=O)ccc5c4)CC3)C(=O)[C@@H]3CC=CC[C@H]23)cc1OC = 146 to 149 °C

Please fill in: melting point reported for CCC1Cc2ccc(C)cc2C1=O (stereo unspecified) = 50 to 52 °C

Please fill in: melting point reported for CNS(=O)(=O)c1cc(C)ccc1C=C1c2ccccc2CCc2ccccc21 = 175 °C

Please fill in: melting point reported for CCCCCCCCCCCCOc1c(OC)cc(N)c2nccc(C)c12 = 53 to 55 °C

Please fill in: melting point reported for CC(=O)Nc1ccc(C)c2c1C(=O)CCC2 = 92 to 94 °C

Please fill in: melting point reported for ClC(Cl)(Cl)SNc1nc(C(Cl)(Cl)Cl)ns1 = 180 °C

Please fill in: melting point reported for CCOC(=O)c1csc2nc(C(=O)OC)cn12 = 187 to 189 °C

Please fill in: melting point reported for O=C(N[C@@H]1CCc2c(Br)ccc(N3CCNCC3)c2C1)c1ccc(N2CCOCC2)cc1 = 228 to 229 °C

Please fill in: melting point reported for COc1ccc(-c2n[nH]c(=O)cc2-c2ccc(OC)c(F)c2)cc1 = 213 °C

----------
This section presents compounds with their documented melting point values.

INSERT INTO results (compound, obsvalue) VALUES
  ('CC(=O)Nc1ccc(N2CCN(c3ccncc3)CC2)cc1', '244 to 247 °C'),
  ('Clc1ccc(CS[C@H]2CO[C@H](c3ccccc3)OC2)cc1', '95 to 99 °C'),
  ('O=C(c1ccc2c(c1)[C@@H](O)[C@H](Br)CCO2)c1ccccc1C(F)(F)F (relative stereo)', '176 to 179 °C'),
  ('CSc1nc(O)nn1C(C)C', '90 to 92 °C'),
  ('CC(C)(C)c1ccc(S(=O)(=O)Nc2ncnc(Cl)c2Oc2ccccc2)cc1', '143 to 144 °C');

Please fill in: melting point reported for OCCN(c1ccccc1)c1ccccc1 = 109 to 110 °C

Please fill in: melting point reported for Cc1c(NCc2ccccc2)c2c(c3c1C(c1ccc(C(C)C)cc1)CO3)CCC2 (stereo not drawn) = 95 to 96 °C

Please fill in: melting point reported for Cc1cccc(Cl)c1NS(=O)(=O)c1nc(N)n(C(=O)Oc2ccccc2)n1 = 200 °C

Please fill in: melting point reported for CCOC(=O)c1cc(OCc2ccccc2)c2nc(C3CC3)n(C)c2c1 = 120 °C

Please fill in: melting point reported for COc1cccc(C(=O)Nc2ccc3c(c2)CCCC3=O)c1 = 142 to 143 °C

Please fill in: melting point reported for N#Cc1ccc(S(=O)(=O)N2CCN(C(=O)C3CCN(c4ccncn4)CC3)CC2)cc1 = 180 to 181 °C

----------
measuredParameter: melting point

Here's what some known entries look like.
INSERT INTO measurements (compound, obsvalue) VALUES
  ('O=C(NCCCCN1CCN(c2csc3cc(F)ccc23)CC1)c1ccc(F)cc1', '161 to 163 °C'),
  ('Cc1cc(C)c(O)c(-c2cc(C(C)C)ccc2C(C)C)c1', '179 °C'),
  ('COc1ccnc(C(=O)N[C@H]2COC(=O)[C@H](CC3CCCCC3)[C@@H](OC(=O)C(C)C)[C@H](C)OC2=O)c1OC(C)=O', '164 to 170 °C');

Please fill in: melting point reported for COc1cc(Cc2cnc(N)nc2N)c(Cc2cnc(N)nc2N)cc1OC = 280 °C

Please fill in: melting point reported for Cc1ccc(CC(=O)c2sccc2S(=O)(=O)Nc2onc(C)c2Br)cc1 = 146 to 150 °C

Please fill in: melting point reported for CN1CCC(c2c(O)cc(O)c3c(=O)cc(-c4ccccc4Cl)oc23)C1CS (stereo not drawn) = 205 to 206 °C

Please fill in: melting point reported for Cc1cnc(-c2ccc(Br)cc2)nc1-c1ccc(Br)cc1 = 136 to 137 °C

Please fill in: melting point reported for CC(SC(=S)c1cc(C(C)(C)C)c(O)c(C(C)(C)C)c1)c1ccccc1 (stereo not drawn) = 70 to 72 °C
